Study Target: Recombinant human HSD17B13 (Homo sapiens (Human), UniProt Q7Z5P4)
Sequence (Q7Z5P4 20-300): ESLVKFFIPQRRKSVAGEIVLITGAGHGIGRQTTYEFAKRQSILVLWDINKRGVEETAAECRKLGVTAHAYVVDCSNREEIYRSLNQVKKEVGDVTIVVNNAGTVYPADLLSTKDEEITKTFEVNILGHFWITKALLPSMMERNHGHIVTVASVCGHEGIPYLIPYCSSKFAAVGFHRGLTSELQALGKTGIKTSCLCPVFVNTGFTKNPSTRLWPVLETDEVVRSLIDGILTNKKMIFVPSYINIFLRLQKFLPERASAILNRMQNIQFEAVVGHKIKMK
Assay Name: HSD17B13 rapid-fire mass spectrometry assay (RF/MS assay)
Conditions: inhibition of HSD17B13; LTB4 10 μM, NAD+ 0.5 mM, RT 3 h; IC50 ranges A-E
Experimental Readout: IC50

>  <Compound>
O=C(O)c1ccc(NS(=O)(=O)c2cscn2)cc1

>  <IC50>
1000 to 100000 nM

$$$$
>  <Compound>
COc1cc(C(=O)O)c(F)cc1NS(=O)(=O)c1csc(-c2ccc(-c3ccc(C4CC4)cc3C(F)(F)F)cc2C(F)(F)F)n1

>  <IC50>
< 100 nM

$$$$
>  <Compound>
COc1cc(C(=O)O)c(F)cc1NS(=O)(=O)c1csc(-c2ccc([C@H]3CC[C@@H](C(C)(C)C)CC3)cc2C(F)(F)F)n1

>  <IC50>
100 to 500 nM

$$$$

Query: # get_value(readout='IC50', item= COc1cc(C(=O)O)ccc1NS(=O)(=O)c1cc(-c2ccc(C3CCCCC3)cc2)ccc1F )
Result: 500 to 1000 nM

Query: Next: COc1cc(C(=O)O)c(F)cc1NS(=O)(=O)c1csc(-c2ccc(C3CCC(C)(C)CC3)cc2F)n1
Result: < 100 nM

Query: Next: CC[C@H]1CC[C@@H](c2ccc(-c3nc(S(=O)(=O)Nc4ccc(C(=O)O)cc4OC)co3)cc2)CC1 [Example 489]
Result: 100 to 500 nM

Query: Next: COc1cc(C(=O)O)ccc1NS(=O)(=O)N1Cc2nc(C#CC3CCCC3)sc2C1
Result: 100 to 500 nM

Values were extracted from patent US12384753B2.
